target: human wildtype CFTR (Homo sapiens); assay: Short-circuit current measurement of CFTR inhibition; assay type: cell-based; conditions: Table 1, variations in Rings A and C; FRT cells expressing human wildtype CFTR
Sequence (P13569 whole entry): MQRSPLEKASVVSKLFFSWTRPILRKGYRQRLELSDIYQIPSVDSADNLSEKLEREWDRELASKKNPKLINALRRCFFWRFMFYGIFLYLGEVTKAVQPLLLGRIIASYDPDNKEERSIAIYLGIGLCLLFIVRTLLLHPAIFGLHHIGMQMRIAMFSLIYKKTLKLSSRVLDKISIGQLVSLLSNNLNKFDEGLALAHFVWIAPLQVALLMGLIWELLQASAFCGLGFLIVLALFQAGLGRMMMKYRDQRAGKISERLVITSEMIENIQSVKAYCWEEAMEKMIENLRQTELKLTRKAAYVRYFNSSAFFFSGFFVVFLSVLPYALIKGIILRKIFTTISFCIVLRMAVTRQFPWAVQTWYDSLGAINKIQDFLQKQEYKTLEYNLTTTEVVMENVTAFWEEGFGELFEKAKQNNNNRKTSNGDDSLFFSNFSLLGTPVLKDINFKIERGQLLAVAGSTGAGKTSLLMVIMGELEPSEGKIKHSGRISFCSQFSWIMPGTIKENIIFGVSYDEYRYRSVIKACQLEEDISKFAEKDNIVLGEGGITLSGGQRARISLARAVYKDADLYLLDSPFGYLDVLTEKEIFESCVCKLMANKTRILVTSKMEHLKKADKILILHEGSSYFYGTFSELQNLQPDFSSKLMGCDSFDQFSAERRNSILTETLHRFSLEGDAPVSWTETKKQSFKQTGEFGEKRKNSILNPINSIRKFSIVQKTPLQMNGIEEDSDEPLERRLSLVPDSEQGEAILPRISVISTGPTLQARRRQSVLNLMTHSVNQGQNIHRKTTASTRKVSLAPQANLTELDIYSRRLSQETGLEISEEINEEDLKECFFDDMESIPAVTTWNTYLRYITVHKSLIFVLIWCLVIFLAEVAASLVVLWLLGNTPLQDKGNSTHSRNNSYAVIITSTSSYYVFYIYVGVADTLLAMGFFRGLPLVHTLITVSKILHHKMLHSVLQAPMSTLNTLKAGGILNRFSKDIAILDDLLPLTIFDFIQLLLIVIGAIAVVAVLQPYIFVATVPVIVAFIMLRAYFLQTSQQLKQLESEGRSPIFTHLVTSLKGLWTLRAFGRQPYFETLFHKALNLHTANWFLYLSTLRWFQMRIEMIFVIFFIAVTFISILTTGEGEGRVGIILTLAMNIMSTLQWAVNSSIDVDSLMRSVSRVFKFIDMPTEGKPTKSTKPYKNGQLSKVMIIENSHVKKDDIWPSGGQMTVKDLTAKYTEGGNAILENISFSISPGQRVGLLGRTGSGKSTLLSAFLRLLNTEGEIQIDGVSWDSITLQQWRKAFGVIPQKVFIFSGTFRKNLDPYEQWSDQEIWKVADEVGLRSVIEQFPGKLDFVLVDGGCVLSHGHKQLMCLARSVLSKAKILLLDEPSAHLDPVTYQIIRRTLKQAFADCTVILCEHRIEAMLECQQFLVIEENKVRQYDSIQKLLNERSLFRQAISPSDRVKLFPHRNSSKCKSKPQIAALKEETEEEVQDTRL
Measurement label: IC50 (μM)

Guide cases for IC50 (μM), answers given:
Input smiles | IC50 (μM)
COc1cc(Br)ccc1/C=C1\SC(=S)N(c2cccc(C(F)(F)F)c2)C1=O | Inactive
NC(=O)c1ccc(/C=C2\SC(=S)N(c3cccc(C(F)(F)F)c3)C2=O)cc1 | Inactive
COc1c(Br)cc(/C=C2\SC(=S)N(c3cccc(C(F)(F)F)c3)C2=O)c(O)c1Br | Inactive
CC(=O)OCOC(=O)c1ccc(/C=C2\SC(=S)N(c3cccc(C(F)(F)F)c3)C2=O)cc1 | Inactive
COc1ccc(/C=C2\SC(=S)N(c3cccc(C(F)(F)F)c3)C2=O)cc1 | Inactive

## Input Can you share its IC50 (μM)? I mean this compound: O=C1/C(=C/c2ccc(O)c(O)c2)SC(=S)N1c1cccc(C(F)(F)F)c1
## Output Inactive

## Input Returns the measured IC50 (μM) for the input compound. Input: NCCNC(=O)c1ccc(/C=C2\SC(=S)N(c3cccc(C(F)(F)F)c3)C2=O)cc1
## Output Inactive

## Input Entry CCOC(=O)c1ccc(/C=C2\SC(=S)N(c3cccc(C(F)(F)F)c3)C2=O)cc1 has what IC50 (μM)?
## Output Inactive

## Input // returns reported IC50 (μM) for input O=C(NCCO)c1ccc(/C=C2\SC(=S)N(c3cccc(C(F)(F)F)c3)C2=O)cc1
## Output Inactive
